Biological target: TbrPDEB1 (Trypanosoma brucei, UniProt Q8WQX9)
Construct: The TbrPDEB1 catalytic domain phosphodiesterase activity assays were conducted based on a method reported by Sijm et al
Sequence (Q8WQX9 565-918 limits assumed): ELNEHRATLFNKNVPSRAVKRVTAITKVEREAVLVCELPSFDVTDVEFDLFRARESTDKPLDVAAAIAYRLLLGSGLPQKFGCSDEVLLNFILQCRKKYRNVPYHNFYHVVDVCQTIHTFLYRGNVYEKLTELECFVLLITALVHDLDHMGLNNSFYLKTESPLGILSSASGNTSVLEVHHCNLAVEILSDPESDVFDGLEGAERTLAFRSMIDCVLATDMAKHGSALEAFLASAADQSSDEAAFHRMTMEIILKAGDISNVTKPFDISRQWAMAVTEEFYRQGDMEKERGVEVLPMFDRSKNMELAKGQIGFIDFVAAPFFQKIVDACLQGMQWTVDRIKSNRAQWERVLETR
Assay: TbrPDEB1 catalytic domain phosphodiesterase activity assay (PDELight HTS cAMP kit)
Type: biochemical
Details: single point assay at 10 μM inhibitor; read-out: TbrPDEB1 (% inh.)
measurement name: inhibition at 10 µM (%)

[a] CCOC(=O)c1cnc(Oc2cc(C3=NN(C(C)C)C(=O)[C@@H]4CC=CC[C@H]34)ccc2OC)s1 (relative stereo) [2b]
[b] COc1ccc(C2=NN(C(C)C)C(=O)[C@@H]3CC=CC[C@H]23)cc1Oc1cnc(C(N)=O)cn1 (relative stereo) [2e]
Ask: Field: entry with larger inhibition at 10 µM (options a / b ). Respond using the label that marks the chosen record.
Result: b
